src = ChEMBL document CHEMBL1132937

Biological target: 72 kDa type IV collagenase (Homo sapiens, UniProt P08253)
Sequence (P08253 whole entry): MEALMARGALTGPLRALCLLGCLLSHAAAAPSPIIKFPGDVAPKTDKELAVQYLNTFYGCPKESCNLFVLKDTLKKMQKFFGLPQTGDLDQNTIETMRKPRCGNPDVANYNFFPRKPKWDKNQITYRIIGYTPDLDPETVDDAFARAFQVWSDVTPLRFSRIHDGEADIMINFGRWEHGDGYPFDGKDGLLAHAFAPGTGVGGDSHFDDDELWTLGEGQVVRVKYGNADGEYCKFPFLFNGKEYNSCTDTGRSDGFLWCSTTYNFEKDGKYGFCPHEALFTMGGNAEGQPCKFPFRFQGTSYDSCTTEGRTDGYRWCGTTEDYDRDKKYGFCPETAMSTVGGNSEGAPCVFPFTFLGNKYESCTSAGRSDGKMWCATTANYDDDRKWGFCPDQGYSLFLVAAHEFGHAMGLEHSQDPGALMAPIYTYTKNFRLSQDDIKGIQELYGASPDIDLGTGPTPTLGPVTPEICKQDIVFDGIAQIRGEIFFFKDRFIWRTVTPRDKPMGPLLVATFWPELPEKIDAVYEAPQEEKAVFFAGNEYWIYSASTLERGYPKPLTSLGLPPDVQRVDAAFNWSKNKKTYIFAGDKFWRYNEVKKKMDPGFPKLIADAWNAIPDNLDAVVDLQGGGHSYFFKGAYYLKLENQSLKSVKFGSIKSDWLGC
pKi: −log10 of the molar value.
// label = true (1) if pKi is not less than 8, otherwise false (0)

smi: O=C(CN(Cc1ccc([N+](=O)[O-])cc1)S(=O)(=O)c1cccc(NC(=O)NS(=O)(=O)c2ccccc2)c1)NO
class_name: true (1)
//
smi: O=C(O)CN(Cc1ccc([N+](=O)[O-])cc1)S(=O)(=O)c1ccc(NC(=O)NS(=O)(=O)c2ccccc2)cc1
class_name: false (0)
//
smi: CN(C)S(=O)(=O)N(CC(=O)NO)Cc1ccc([N+](=O)[O-])cc1
class_name: false (0)
//
smi: Cc1ccc(S(=O)(=O)NC(=O)Nc2cccc(S(=O)(=O)N(CC(=O)O)Cc3ccc([N+](=O)[O-])cc3)c2)cc1
class_name: false (0)
//
smi: O=C(CN(Cc1ccc([N+](=O)[O-])cc1)S(=O)(=O)c1cccc(C(=O)O)c1)NO
class_name: true (1)

---

pKi: −log10 of the molar value.
Here's what we have: pKi numbers for 72 kDa type IV collagenase (Homo sapiens, UniProt P08253).
measured_endpoint: pKi

smi: O=C(CN(Cc1ccc([N+](=O)[O-])cc1)S(=O)(=O)c1ccc(NC(=O)NS(=O)(=O)c2ccc(Cl)cc2)cc1)NO
readout_value: 9.10
--
smi: COc1ccc(S(=O)(=O)N(CC(=O)NO)Cc2ccc([N+](=O)[O-])cc2)cc1NC(=O)OC(C)(C)C
readout_value: 8.30
--
smi: O=C(CN(Cc1ccc([N+](=O)[O-])cc1)S(=O)(=O)c1ccc(NC(=O)NS(=O)(=O)c2ccc(F)cc2)cc1)NO
readout_value: 9.22
--
smi: O=C(O)CN(Cc1ccc([N+](=O)[O-])cc1)S(=O)(=O)c1cccc(NC(=O)NS(=O)(=O)c2ccc(F)cc2)c1
readout_value: 7.82

---

Molecular target: Neutrophil collagenase (Homo sapiens)
Here the recorded Ki is given for each entry.

smi: O=C(O)CN(Cc1ccc([N+](=O)[O-])cc1)S(=O)(=O)c1ccc(NC(=O)NS(=O)(=O)c2ccc(Cl)cc2)cc1
Ki: 24 nM

smi: O=C(CN(Cc1ccc([N+](=O)[O-])cc1)S(=O)(=O)c1ccc([N+](=O)[O-])cc1)NO
Ki: 7 nM

smi: Cc1ccccc1S(=O)(=O)NC(=O)Nc1ccc(S(=O)(=O)N(CC(=O)NO)Cc2ccc([N+](=O)[O-])cc2)cc1
Ki: 1.5 nM

smi: O=C(CN(Cc1ccc([N+](=O)[O-])cc1)S(=O)(=O)c1cccc(C(=O)O)c1)NO
Ki: 3.3 nM

smi: O=C(CN(Cc1ccc([N+](=O)[O-])cc1)S(=O)(=O)c1ccc(NC(=O)NS(=O)(=O)c2ccc(F)cc2)cc1)NO
Ki: 0.5 nM

smi: O=C(CN(Cc1ccc([N+](=O)[O-])cc1)S(=O)(=O)c1ccc(I)cc1)NO
Ki: 17 nM

---

Below, each entry is listed alongside its reported Ki.
Biological target: Neutrophil collagenase (Homo sapiens, UniProt P22894)
Sequence (P22894 whole entry): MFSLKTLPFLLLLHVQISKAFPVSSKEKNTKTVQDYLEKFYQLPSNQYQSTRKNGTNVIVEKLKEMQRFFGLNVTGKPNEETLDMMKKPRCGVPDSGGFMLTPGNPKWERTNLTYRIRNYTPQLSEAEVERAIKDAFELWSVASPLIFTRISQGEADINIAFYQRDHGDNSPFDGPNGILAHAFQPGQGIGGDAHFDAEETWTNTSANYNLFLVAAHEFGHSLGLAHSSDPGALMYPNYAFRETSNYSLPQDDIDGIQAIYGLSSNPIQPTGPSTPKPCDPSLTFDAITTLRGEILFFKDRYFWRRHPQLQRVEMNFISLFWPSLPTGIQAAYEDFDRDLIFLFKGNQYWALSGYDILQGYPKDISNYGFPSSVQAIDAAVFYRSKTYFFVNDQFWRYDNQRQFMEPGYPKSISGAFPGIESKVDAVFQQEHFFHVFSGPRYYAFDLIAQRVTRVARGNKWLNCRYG

smi: O=C(O)CN(Cc1ccc([N+](=O)[O-])cc1)S(=O)(=O)c1cccc(NC(=O)NS(=O)(=O)c2ccccc2)c1
Ki: 27 nM
--
smi: O=C(CN(Cc1ccc([N+](=O)[O-])cc1)Sc1ccc([N+](=O)[O-])cc1)NO
Ki: 8 nM
--
smi: O=C(CN(Cc1ccc([N+](=O)[O-])cc1)S(=O)(=O)c1cccs1)NO
Ki: 12 nM
--
smi: O=C(CN(Cc1ccc([N+](=O)[O-])cc1)S(=O)(=O)C(F)(F)C(F)(F)C(F)(F)C(F)(F)C(F)(F)C(F)(F)C(F)(F)C(F)(F)F)NO
Ki: 1.3 nM
